measured_on: human orexin-1 receptor (Homo sapiens)
Construct: expressed in transfected cells; host or cells: Chinese hamster ovary (CHO) cells
assay_procedure: FLIPR calcium assay of orexin receptor antagonistic activity, CHO cells expressing human orexin-1 receptor
Format: cell-based
experimental_conditions: read-out: OX1 IC50
pIC50: −log10 of the molar value.
value_kind: pIC50

P. COc1ncccc1C(=O)NCC1SCCN1C(=O)c1nc(C)sc1-c1cccc(C)c1 (racemic)
Q. CCc1onc(C)c1C(=O)NCC1SCCN1C(=O)c1nc(C)sc1-c1cccc(C)c1 (racemic)
Could you kindly indicate whether P or Q has the higher pIC50 value? I would appreciate it if you answered with the label of your choice. P
(P: 8.40, Q: 8.05)

###

measured_on: human orexin-2 receptor (Homo sapiens)
Construct: expressed in transfected cells; host or cells: Chinese hamster ovary (CHO) cells
Sequence (O43614 whole entry): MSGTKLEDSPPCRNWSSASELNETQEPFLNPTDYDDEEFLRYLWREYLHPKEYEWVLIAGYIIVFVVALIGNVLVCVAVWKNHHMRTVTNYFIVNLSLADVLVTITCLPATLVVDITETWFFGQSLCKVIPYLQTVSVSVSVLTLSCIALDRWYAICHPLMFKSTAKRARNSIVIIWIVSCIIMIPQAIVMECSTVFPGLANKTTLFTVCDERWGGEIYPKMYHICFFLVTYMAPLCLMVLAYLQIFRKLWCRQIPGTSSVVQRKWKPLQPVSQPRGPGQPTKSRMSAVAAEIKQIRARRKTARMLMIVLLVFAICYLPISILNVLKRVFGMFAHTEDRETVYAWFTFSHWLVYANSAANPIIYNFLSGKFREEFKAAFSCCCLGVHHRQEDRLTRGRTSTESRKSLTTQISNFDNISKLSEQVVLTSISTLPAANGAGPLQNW
assay_procedure: FLIPR calcium assay of orexin receptor antagonistic activity, CHO cells expressing human orexin-2 receptor
Assay type: cell-based
experimental_conditions: 3 nM orexin-A as agonist; not normalized; *2/*3 = geometric mean of n = 2/3 values; read-out: OX2 IC50
pIC50: −log10 of the molar value.
value_kind: pIC50

Here is how some molecules turned out for pIC50.
molecule	value_kind	endpoint_result
Cc1nc(C(=O)N2CCSC2CNC(=O)c2cccc3ncsc23)c(-c2ccccc2)o1 (racemic) [Example 88]	pIC50	8.15
Cc1nc(C(=O)N2CCSC2CNC(=O)c2cccc3ncsc23)c(-c2ccc(C)c(F)c2)s1 (racemic) [Example 120]	pIC50	8.15
Cc1cccc(-c2oc(C)nc2C(=O)N2CCSC2CNC(=O)c2cccc3ncsc23)c1 (racemic) [Example 83]	pIC50	7.96
COc1cccc(-c2nc(C)sc2C(=O)N2CCSC2CNC(=O)c2cccc3c2CCO3)c1 (racemic) [Example 32]	pIC50	8.30
Cc1nc(C(=O)N2CCSC2CNC(=O)c2nn(C)c3ccccc23)c(-c2ccc(C)c(F)c2F)s1 (racemic) [Example 126]	pIC50	7.96

I. Cc1nc(C(=O)N2CCSC2CNC(=O)c2cccc3c2CCO3)c(-c2ccc(F)cc2)s1 (racemic) [Example 77]
II. Cc1nc(-c2cccc(Cl)c2)c(C(=O)N2CCSC2CNC(=O)c2cccc3c2CCO3)s1 (racemic) [Example 29]
Could you kindly indicate whether I or II has the higher pIC50 value? I would appreciate it if you answered with the label of your choice. I
(I: 8.40, II: 8.15)

###

measured_on: human orexin-1 receptor (Homo sapiens)
Construct: expressed in transfected cells; host or cells: Chinese hamster ovary (CHO) cells
assay_procedure: FLIPR calcium assay of orexin receptor antagonistic activity, CHO cells expressing human orexin-1 receptor
Assay type: cell-based
experimental_conditions: 3 nM orexin-A as agonist; not normalized; *2/*3 = geometric mean of n = 2/3 values; read-out: OX1 IC50
pIC50: −log10 of the molar value.
value_kind: pIC50

molecule	measured_on	pIC50
Cc1cccc(-c2sc(N(C)C)nc2C(=O)N2CCSC2CNC(=O)c2cccc3c2CCO3)c1 (racemic)	human orexin-1 receptor (Homo sapiens)	7.92
Cc1ccc(-c2nc(C)sc2C(=O)N2CCSC2CNC(=O)c2cccc3c2OCCO3)cc1 (racemic)	human orexin-1 receptor (Homo sapiens)	8.00
Cc1cccc(-c2oc(C)nc2C(=O)N2CCSC2CNC(=O)c2cccc3ncsc23)c1 (racemic)	human orexin-1 receptor (Homo sapiens)	7.85
Cc1nc(C(=O)N2CCSC2CNC(=O)c2cccc3c2CCO3)c(-c2ccc(F)cc2)s1 (racemic)	human orexin-1 receptor (Homo sapiens)	8.40
Cc1cccc(-c2sc(C)nc2C(=O)N2CCSC2CNC(=O)c2ccn3ccsc23)c1 (racemic)	human orexin-1 receptor (Homo sapiens)	8.70

A. Cc1nc(-c2cccc(Cl)c2)c(C(=O)N2CCSC2CNC(=O)c2cccc3c2CCO3)s1 (racemic)
B. Cc1nc(-c2cccc(C(F)(F)F)c2)c(C(=O)N2CCSC2CNC(=O)c2nn(C)c3ccccc23)s1 (racemic)
Could you kindly indicate whether A or B has the higher pIC50 value? I would appreciate it if you answered with the label of your choice. A

a. Cc1nc(C(=O)N2CCSC2CNC(=O)c2cccc3c2OCCO3)c(-c2ccccc2)s1 (racemic)
b. Cc1nc(C(=O)N2CCSC2CNC(=O)c2cccc3ncsc23)c(-c2ccc(C)c(F)c2)s1 (racemic)
Could you kindly indicate whether a or b has the higher pIC50 value? I would appreciate it if you answered with the label of your choice. a

a. COc1cccc(-c2nc(C)sc2C(=O)N2CCSC2CNC(=O)c2cccc3c2CCO3)c1 (racemic)
b. COc1cccc(-c2oc(C)nc2C(=O)N2CCSC2CNC(=O)c2cccc3ncsc23)c1 (racemic)
Could you kindly indicate whether a or b has the higher pIC50 value? I would appreciate it if you answered with the label of your choice. a
(a: 8.40, b: 8.15)

A. Cc1cccc(-c2sc(C)nc2C(=O)N2CCSC2CNC(=O)c2cccc3ocnc23)c1 (racemic)
B. Cc1nc(-c2ccc(F)cc2)c(C(=O)N2CCSC2CNC(=O)c2nn(C)c3ccccc23)s1 (racemic)
C. O=C(NCC1SCCN1C(=O)c1nc(C2CC2)sc1-c1cccc(F)c1)c1cccc2c1CCO2 (racemic)
Reorder: pIC50, max to min. Hello, could you send the labels back in the order asked? Thank you. C, A, B

###

measured_on: human orexin-1 receptor (Homo sapiens, UniProt O43613)
Construct: expressed in transfected cells; host or cells: Chinese hamster ovary (CHO) cells
Sequence (O43613 whole entry): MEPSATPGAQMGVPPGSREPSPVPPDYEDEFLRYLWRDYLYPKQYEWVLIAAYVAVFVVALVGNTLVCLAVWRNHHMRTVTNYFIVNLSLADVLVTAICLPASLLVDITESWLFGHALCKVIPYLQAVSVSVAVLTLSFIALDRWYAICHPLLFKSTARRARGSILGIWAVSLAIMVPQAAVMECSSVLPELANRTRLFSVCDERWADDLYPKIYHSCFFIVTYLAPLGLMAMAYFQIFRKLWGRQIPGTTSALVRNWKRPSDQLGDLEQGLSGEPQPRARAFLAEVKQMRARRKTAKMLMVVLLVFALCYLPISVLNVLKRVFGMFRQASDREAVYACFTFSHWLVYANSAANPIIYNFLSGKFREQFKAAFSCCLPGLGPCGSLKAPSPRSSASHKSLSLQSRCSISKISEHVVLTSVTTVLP
assay_procedure: FLIPR calcium assay of orexin receptor antagonistic activity, CHO cells expressing human orexin-1 receptor
Format: cell-based
experimental_conditions: read-out: OX1 IC50
value_kind: IC50 (nM)

compound	IC50 (nM)
Cc1cccc(-c2sc(C)nc2C(=O)N2CCSC2CNC(=O)c2nc(C)oc2C)c1 (racemic)	5
Cc1cccc(-c2sc(C)nc2C(=O)N2CCSC2CNC(=O)c2sc(C)nc2C)c1 (racemic)	6
Cc1cccc(-c2sc(C)nc2C(=O)N2CCSC2CNC(=O)c2cccc(C(F)(F)F)n2)c1 (racemic)	5
Cc1cccc(-c2sc(C)nc2C(=O)N2CCSC2CNC(=O)c2cnn(C)c2C(F)(F)F)c1 (racemic)	5
